Target: Fibroblast growth factor 10 (Homo sapiens)
Assay: FGF10 binders on small-molecule microarrays, primary screen, biochemical, small-molecule microarray, 635 nm fluorescence (AID 1102)
Conditions: FGF10 binding, fluorescence 635 nm, higher = more signal
// label = fulfilled if composite z-score is not less than 0.5, otherwise not fulfilled

These recorded examples may help you get a feel for the data.
Test smiles: CCOC(=O)C[C@H]1[C@H](OC(=O)c2cc3ccccc3oc2=O)[C@@H](NC(=O)Cc2ccc(OC)cc2)c2cc(OCCCO)ccc2N1C(=O)c1ccc2ccccc2n1
Category label: fulfilled
//
Test smiles: COc1ccc([Si](C)(C)[C@@H]2[C@@H](CCO)O[C@]3(C(=O)N(Cc4ccc(N5CCCCC5=O)cc4)c4ccccc43)[C@H]2C)cc1
Category label: fulfilled
//
Test smiles: COc1ccc([Si](C)(C)[C@@H]2[C@@H](CC(=O)N(CCO)Cc3ccccc3)O[C@]3(C(=O)N(c4ccccc4)c4ccccc43)[C@H]2C)cc1
Category label: fulfilled
//
Test smiles: COc1ccc([Si](C)(C)[C@H]2[C@H](CCO)O[C@@]3(C(=O)N(Cc4cccc(N5C(=O)COc6ccccc65)c4)c4ccccc43)[C@@H]2C)cc1
Category label: not fulfilled
//
Test smiles: C=C(/C(=C/C[C@H](OC(C)=O)c1ccccc1OCCO)c1cc(C(=O)OC)ccc1OC)C(C)C
Category label: fulfilled

Prompt: Given the entry C[C@]1(C(=O)NC2CC2)c2ccccc2C(=O)N(Cc2ccccc2)[C@H]1c1ccc(CO)cc1 , answer whether its composite z-score meets or surpasses 0.5.
Response: not fulfilled

Prompt: Quick check: does COC(=O)[C@@]1(Cc2ccccc2)[C@@H]2C(=CC(=O)[C@H]2CC(=O)C(=O)N(C)C)CN1C(=O)c1ccccc1 have composite z-score greater than or equal to 0.5?
Response: not fulfilled

----------
Experiment: HepG2 liver cancer cell viability effects, profiling panel, resazurin fluorescence, 24 h, PK04 Diversity Set (AID 1172); further: test concentration not given here
Settings: higher = more signal
Result type: z-score
The answer should be written as a number, with no unit following it.

# annotated cases, reported z-score shown
Test smiles: CCOC(=O)C[C@H]1[C@H](OC(=O)Cc2ccc3c(c2)OCO3)[C@@H](NC(=O)CC(C)C)c2cc(OCCCO)ccc2N1C(=O)Cc1ccc(OC)cc1
Numeric readout: -0.334
--
Test smiles: CCOC(=O)C[C@H]1[C@H](OC(=O)Cc2ccc3c(c2)OCO3)[C@@H](NC(=O)Cc2ccc(OC)cc2)c2cc(OCCCO)ccc2N1C(=O)c1ccc2ccccc2n1
Numeric readout: -0.337
--
Test smiles: O=C1O[C@H](c2ccccc2)[C@H](c2ccccc2)N2[C@H]1[C@@H](C(=O)Nc1nc3ccccc3s1)[C@]1(C(=O)Nc3ccc(C#CC4(O)CCCCCC4)cc31)[C@H]2c1ccccc1OCCO
Numeric readout: 0.162
--
Test smiles: [N-]=[N+]=Nc1ccccc1[C@H]1OC(c2ccc(OCCCO)cc2)=N[C@@]1(CCS(=O)(=O)c1ccccc1)C(=O)NCCN1CCOCC1
Numeric readout: 0.3
--
Test smiles: COc1ccc(CCNC(=O)[C@@H]2c3ccccc3C(=O)N(Cc3cc(C(F)(F)F)cc(C(F)(F)F)c3)[C@H]2c2ccc(CO)cc2)cc1
Numeric readout: 0.317

Proceeding to the next compound to report its z-score.
Prompt: Fill blank: measured z-score of the compound COC(=O)C(CC#Cc1ccc2c(c1)[C@]1(C(=O)N2)[C@H](c2ccccc2OCCO)N2[C@H](c3ccccc3)[C@H](c3ccccc3)OC(=O)[C@H]2[C@@H]1C(=O)NC[C@H](O)c1ccccc1)C(=O)OC is ____.
Response: -0.248

----------
Assay: basal HepG2 mitochondrial membrane potential changes, profiling panel, cell-based, JC-1 fluorescence, 24 h, 100 nL compound (AID 1167); further: test concentration not given here
Details: higher = more signal
Result type: z-score

Compound: O[C@@H](Cc1ccccc1)[C@@H](/C=C/C1CC1)N(CC#Cc1ccccc1)Cc1cccc(Cl)c1
z-score: -0.549

Prompt: Returns the measured z-score for the input compound. Input: CN1C(=O)C2C=CC(C(O)C#Cc3ccccc3)N(Nc3ccccc3)C2C1=O (centres undefined)
Response: -1.36

Prompt: May I ask what z-score has been recorded for COC(=O)[C@@]1(Cc2ccc(OC)cc2)[C@@H]2C(=CC(=O)[C@H]2CC(=O)C(=O)N(C)C)CN1C(=O)c1ccccc1 ?
Response: 0.607

Prompt: Given the entry C=CCC(OC(C)=O)[C@@H]1[C@@H](N(Cc2cccc3ccccc23)C(=O)Cc2ccc(F)cc2)c2cc(OCCCO)ccc2N1C(=O)c1ccc2ccccc2n1 (some centres undefined) , report its measured z-score.
Response: 1.69

----------
Assay: splicing luciferase reporter signal modulators, primary screen, spliceosome inhibition project, cell-based, HEK293, splice +/- reporter (AID 1101);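 further: HEK293 cells carrying a splicing-competent luciferase reporter gene; test concentration not given here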
Settings: luminescence, 24 h, higher = more signal, called active from +8 up or from −8 down
Class definitions on z-score: bottom range = under -0.7, center range = from -0.7 up to 0.06, top range = 0.06 and over

Sample answers from the record:
Compound: CCCC[C@@H]1C[C@H]1[C@@H](NC(=O)Cc1ccccc1)c1ccc(-c2ccccc2)cc1
Category label: bottom range
--
Compound: C[C@H]1NC(=O)[C@@]23C(=O)N[C@@H](Cc4ccccc4)C2[C@H](C)[C@@]2(C)O[C@H]2C3/C=C/C/C=C\CNC(=O)[C@H](Cc2ccccc2)NC1=O (some centres undefined)
Category label: top range
--
Compound: CCCCN1CC=CC23O[C@@H]4/C=C\CCC(C)OC(=O)C4[C@H]2C(=O)N(C(CO)C(C)C)[C@@H]3C1=O (some centres undefined)
Category label: center range
--
Compound: CCCCCCc1nc(C2CC2)cc2c1[Si](C(C)C)(C(C)C)OC2
Category label: bottom range
--
Compound: O=C(N1CCCCC1)[C@@]1(CCS(=O)(=O)c2ccccc2)COC(c2ccc(OCCCO)cc2)=N1
Category label: top range
--
Compound: COC(=O)[C@@]1(Cc2ccc(OC)cc2)[C@H]2c3cc(C(=O)N4CCCC4)n(Cc4c(-c5ccccc5)noc4C)c3C[C@H]2CN1C(=O)c1ccccc1
Category label: bottom range
--
Compound: COCCOC(=O)N1C(=O)[C@@]2(c3cc(C#CC4=CCCCC4)ccc31)[C@H](c1ccc(OCCO)cc1)N1[C@H](c3ccccc3)[C@H](c3ccccc3)OC(=O)[C@H]1[C@@H]2C(=O)NC[C@H](O)c1ccccc1
Category label: center range
--
Compound: O=C1O[C@H](c2ccccc2)[C@H](c2ccccc2)N2[C@H]1[C@@H](C(=O)NC[C@H](O)c1ccccc1)[C@]1(C(=O)Nc3ccc(C#CCCO)cc31)[C@H]2c1ccc(OCCO)cc1
Category label: top range
--
Compound: COc1ccc(-c2cc3c(c(CCc4ccccc4)n2)[Si](C(C)C)(C(C)C)OC3)cn1
Category label: center range
--
Compound: Cc1ccc(S[C@]2(C(=O)NCC(F)(F)F)CC(=O)N(C3CCCCC3)[C@@H]2c2ccc(CO)cc2I)cc1
Category label: center range

Prompt: Band assignment needed for C=CCC(OC(C)=O)[C@@H]1[C@@H](N(Cc2cc3ccccc3o2)C(=O)c2ccc(C)cc2)c2cc(OCCCO)ccc2N1C(=O)Cc1ccc(OC)cc1 (some centres undefined) please.
Response: center range

Prompt: Please indicate the class for Cc1ccc(S[C@]2(C(=O)O)CC(=O)N(C3Cc4ccccc4C3)[C@@H]2c2ccc(CO)cc2)cc1 based on its z-score.
Response: top range

Prompt: Form field 'band' for COC(=O)c1nc2oc1CC[C@@H](CO)NC(=O)N(C)Cc1cnnn1C[C@H](Cc1ccccc1)NC2=O
Response: center range

----------
Tested on: Chordin-like protein 2 (CHRDL2)
Assay: CHRDL2 small-molecule binders, primary screen, biochemical, small-molecule microarray, 635 nm fluorescence (AID 1126);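 further: printed compound slides probed with Chrdl2 protein at 4 µg/mL for 1 h at 4 C; score merges 667 nm emission intensity with signal to noise over three replicate slides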
Conditions: small-molecule microarray binding, fluorescence 635 nm; higher = more signal
Listing of recorded composite z-score by entry.
// no unit string in output, number only

Check out these entries, answers already filled in.
Molecule: CC(C)N1C(=O)C[C@@](C(=O)NCCCN(C)C)(c2ccc([N+](=O)[O-])cc2)[C@H]1c1ccc(CO)cc1
Experimental system: Chordin-like protein 2 (CHRDL2)
composite z-score: -0.0507

Molecule: COCCOC(=O)N1C(=O)[C@@]2(c3cc(C#Cc4ccc(OC)cc4)ccc31)[C@H](c1ccc(O)cc1)N1[C@H](c3ccccc3)[C@H](c3ccccc3)OC(=O)[C@H]1[C@@H]2C(=O)N1CCCCCCC1
Experimental system: Chordin-like protein 2 (CHRDL2)
composite z-score: -0.508

Molecule: COC(=O)[C@@]1(Cc2ccc(OC)cc2)[C@H]2c3cc(C(=O)N(C)C)n(CCO)c3C[C@H]2CN1C(=O)c1ccccc1
Experimental system: Chordin-like protein 2 (CHRDL2)
composite z-score: -0.784

Molecule: O=C1OCC=C[C@H]2OC34C=CCN(Cc5ccccc5)C(=O)[C@H]3N(CCCCCCO)C(=O)[C@@H]4[C@@H]12 (stereo not given in full)
Experimental system: Chordin-like protein 2 (CHRDL2)
composite z-score: -0.694

Molecule: NCCCCCNC(=O)[C@@H]1C[C@@H]2C(=O)NCC(=O)N2[C@@H]1c1cccc(OCCO)c1
Experimental system: Chordin-like protein 2 (CHRDL2)
composite z-score: 0.788

Prompt: Consider the molecule shown here: COC(=O)[C@@]1(Cc2ccccc2)[C@H]2c3cc(C(=O)N(C)C)n(Cc4c(CO)[nH]cc(C)c4=O)c3C[C@H]2CN1C(=O)c1ccccc1 What is its recorded composite z-score?
Response: -0.26

Prompt: Suppose we examine the molecule Cc1ccc(S[C@]2(C(=O)NCC(F)(F)F)CC(=O)N(C3CCCCC3)[C@@H]2c2ccc(CO)cc2I)cc1 ; what composite z-score value has been reported?
Response: 0.0471

Prompt: Given the entry O=C1O[C@H](c2ccccc2)[C@H](c2ccccc2)N2[C@H]1[C@@H](C(=O)N1CCN(c3ncccn3)CC1)[C@]1(C(=O)Nc3ccc(C#CC4(O)CCCCCC4)cc31)[C@H]2c1ccc(OCCO)cc1 , report its measured composite z-score.
Response: 1.41

Prompt: # query: composite z-score of entry CCCC[C@@H](O)C1=C(COc2ccccc2)C[C@H]2C(=O)N(C)C(=O)[C@H]2[C@H]1CO
Response: 0.103

Prompt: Recorded composite z-score of O=C1O[C@H](c2ccccc2)[C@H](c2ccccc2)N2[C@H]1[C@@H](C(=O)NC[C@H](O)c1ccccc1)[C@]1(C(=O)Nc3ccc(C#CCCO)cc31)[C@H]2c1ccc(OCCO)cc1 , please.
Response: -0.327

Prompt: Could you share which composite z-score value was measured for CC(C)(C)N1CC=CC23O[C@@H]4C=CCCOC(=O)C4[C@H]2C(=O)N(CCO)[C@@H]3C1=O (stereo not given in full) ?
Response: -0.267

Prompt: // lookup composite z-score for O=C1OCC=C[C@H]2OC34C=CCN(Cn5nnc6ccccc65)C(=O)[C@H]3N(CCCO)C(=O)[C@@H]4[C@@H]12 (stereo not given in full)
Response: -0.682
